Test summary: folding enthalpy; higher = less favourable; fluorescence melt of hairpins on a sequencing array, two-state fit
Condition parameters: sodium 0.088 M
Endpoint: folding enthalpy

In [3]: df
Out[3]:
                            sequence_data  experimental_value
 0      GATCGGTTTCCCGATC ((((((....))))))      -40.4 kcal/mol
 1  GCACCGCGAAAGCTCTGC (((..((....))..)))      -10.9 kcal/mol
 2  GTAATCGGAAACGATTAC (((((((....)))))))      -42.4 kcal/mol
 3  GCGCACGAAAGTGCTCGC ((((((....)))..)))      -13.5 kcal/mol
 4  GGGCACCGAAAGGTACCC (((.(((....))).)))      -35.1 kcal/mol
 5  GCTCTCGGAAACAAGAGC (((((.(....).)))))      -33.6 kcal/mol
 6          TCGGGGAAACCCGA (((((....)))))      -22.8 kcal/mol
 7  GAAAGGGGAAACCTTTTC ((((.((....)).))))      -27.1 kcal/mol
 8              GCGTCGGCACGC ((((....))))      -10.7 kcal/mol
 9  GATTGGCCGAAAGGCATC (((..(((....))))))      -9.53 kcal/mol
10  GCTTACGAAAGTATGAGC ((((((....)))..)))      -20.5 kcal/mol
11      GATCTTCAGAAAGATC ((((((....))))))      -29.7 kcal/mol
12  GCAAAGCGAAAGCTGTGC (((.(((....))).)))      -41.6 kcal/mol
13  GTCCACCGAAAGGTAGAC (((.(((....))).)))      -26.4 kcal/mol
14  GCTCCCGAAAGGGCGAGC ((((((....)))..)))      -16.3 kcal/mol
15  GAGACCGAAAGGTACCTC ((((((....)))..)))      -11.9 kcal/mol
16  GTAGACGAAAGTCGCTAC ((((((....)))..)))      -10.8 kcal/mol
17                GCGACGGTCGC ((((...))))      -28.4 kcal/mol
18  GTGAATGGAAACATTCGC (.(((((....))))).)      -25.4 kcal/mol
19  GGACCAGGAAACTAGTCC ((((.((....)).))))      -26.9 kcal/mol
20  CGTCCGGAAACGGTCACG ((((((....)))..)))      -13.9 kcal/mol
21    GGATAGCGAAAGCTTCC (((.(((....))))))        -19 kcal/mol
22  CGTCGGCGGAAACGCACG (((..(((....))))))      -18.3 kcal/mol
23  GATTTAGGAAACTAGATC (((.(((....))).)))      -27.5 kcal/mol
24  GTCCTTTCGAAAGAAGAC (((..(((....))))))      -15.3 kcal/mol
25  GCTTCGCGAAAGCTCAGC (((..((....))..)))      -13.4 kcal/mol
26  GTGATTCGAAAGAAGCAC (((.(((....))).)))      -43.9 kcal/mol
27  GGGAGGGGAAACTCTCCC (((((.(....).)))))      -31.4 kcal/mol
28  GTTTGAGGAAACTCAGAC ((.((((....)))).))      -23.4 kcal/mol
29      GATCCCCTGGGGGATC ((((((....))))))      -36.4 kcal/mol
30  GCAACGCGAAAGCATAGC ((.(.((....)).).))      -9.72 kcal/mol
31  GCTGAGGGAAACCTCAGC (((((((....)))))))      -45.2 kcal/mol
32  GGGAGCGAAAGCTCTCCC ((((((....)))..)))      -11.8 kcal/mol
33  GCAGGCGAAAGCCTGTGC ((((((....)))..)))      -14.2 kcal/mol
34  GCATACGGAAACGTATAC (.(((((....))))).)      -16.9 kcal/mol
35  GATGGCGAAAGCCCGATC ((((((....)))..)))      -9.89 kcal/mol
36  GGGGGCGAAAGCCAACCC ((((((....)))..)))      -17.9 kcal/mol
37  GAAGGTGGAAACGTCTTC ((((..(....)..))))        -33 kcal/mol
38  GTCCTCGAAAGAGTGGAC ((((((....)))..)))      -23.6 kcal/mol
39  GCAGTGGGAAACTACTGC (((((.(....).)))))      -37.9 kcal/mol
40      GGAAGAGAAATCTTCC ((((((....))))))      -24.1 kcal/mol
41          TGATTGAAAAATCA (((((....)))))      -10.1 kcal/mol
42  GTACCGTCGAAAGACTAC (((..(((....))))))      -8.88 kcal/mol
43  GGACAGGGAAACCTATCC (((.(((....))).)))      -19.3 kcal/mol
44  GCATGGTCGAAAGACTGC (((..(((....))))))      -18.1 kcal/mol
45      GATCGATCAATCGATC ((((((....))))))      -40.9 kcal/mol
46  GTTGGGGGAAACTCCAAC (((((.(....).)))))      -41.2 kcal/mol
47      GCGGTAGAAATACCGC ((((((....))))))        -36 kcal/mol
48  GCCGAGCGAAAGCTGTGC ((..(((....)))..))      -15.2 kcal/mol
49      GTGACTGAAAAGTCAC ((((((....))))))      -37.6 kcal/mol
